# subject.of.test: CD33 (Sino Biological, Cat #12238-H08H) (UniProt P20138 18-259)
# Sequence (P20138 18-259 limits assumed): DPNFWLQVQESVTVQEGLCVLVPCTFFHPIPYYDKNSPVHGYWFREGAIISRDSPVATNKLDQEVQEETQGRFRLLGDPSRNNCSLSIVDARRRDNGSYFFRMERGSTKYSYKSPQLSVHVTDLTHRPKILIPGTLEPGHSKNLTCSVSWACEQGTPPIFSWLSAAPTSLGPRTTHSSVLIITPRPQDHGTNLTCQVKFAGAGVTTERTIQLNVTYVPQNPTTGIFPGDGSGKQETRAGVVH
# assay.name: BLI, IgG captured on anti-human Fc sensor, 50 nM CD33, pH 7.4 vs pH 5.4
outcome.measure: binding result

- MYT1612 (antibody, V domains shown, IgG; gemtuzumab VL variant #23 (Q93H)) VH: EVQLVQSGAEVKKPGSSVKVSCKASGYTITDSNIHWVRQAPGQSLEWIGYIYPYNGGTDYNQKFKNRATLTVDNPTNTAYMELSSLRSEDTDFYYCVNGNPWLAYWGQGTLVTVSS VL: DIQLTQSPSTLSASVGDRVTITCRASESLDNYGIRFLTWFQQKPGKAPKLLMYAASNQGSGVPSRFSGSGSGTEFTLTISSLQPDDFATYYCHQTKEVPWSFGQGTKVEVK: binds
- MYT1243 (antibody, V domains shown, IgG; IMGN779 VH variant #31 (V100H)) VH: QVQLQQPGAEVVKPGASVKMSCKASGYTFTSYYIHWIKQTPGQGLEWVGVIYPGNDDISYNQKFQGKATLTADKSSTTAYMQLSSLTSEDSAVYYCAREHRLRYFDVWGQGTTVTVSS VL: EIVLTQSPGSLAVSPGERVTMSCKSSQSVFFSSSQKNYLAWYQQIPGQSPRLLIYWASTRESGVPDRFTGSGSGTDFTLTISSVQPEDLAIYYCHQYLSSRTFGQGTKLEIK: binds
- MYT2652 (antibody, V domains shown, IgG; vadastuximab VH combination #4 (F29H+T30H+D105H)) VH: QVQLVQSGAEVKKPGASVKVSCKASGYTHHNYDINWVRQAPGQGLEWIGWIYPGDGSTKYNEKFKAKATLTADTSTSTAYMELRSLRSDDTAVYYCASGYEDAMHYWGQGTTVTVSS VL: DIQMTQSPSSLSASVGDRVTINCKASQDINSYLSWFQQKPGKAPKTLIYRANRLVDGVPSRFSGSGSGQDYTLTISSLQPEDFATYYCLQYDEFPLTFGGGTKVEIK: binds
